Origin of values: the supplement of paper PMC13207355

This section presents molecules with their documented surviving fraction values.
- System: FT3469 (normal neural stem cell line);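 also: nuclei counted by high-content imaging of Hoechst-stained cells in laminin-coated 384-well plates, relative to 0.1% DMSO vehicle wells, with staurosporine as cell-death control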
- measurement-notes: surviving fraction (nuclei count normalised to DMSO); higher = more cells surviving (less toxic)
- condition-parameters: 4.1 nM; exposure time: 72 h
Where a name gives a salt, the structure may show the parent alone.

Below, each entry is followed by its recorded surviving fraction result.
* CC[C@@]1(O)C(=O)OCc2c1cc1n(c2=O)Cc2cc3cc(O)ccc3nc2-1 [Hydroxy Camptothecine] | 0.616
* O=C(Oc1cccc2cccnc12)c1ccccc1 [Benzoxiquine] | 1.05
* Cc1cc(/C=C/c2ccc3cc(N(C)C)ccc3[n+]2C)c(C)n1-c1ccccc1 [Pyrvinium pamoate] | 0.97
* N=C(N)c1ccc(-c2ccc(-c3ccc(C(=N)N)cc3)o2)cc1 [Furamidine dihydrochloride] | 0.904
* Clc1ccc(C(Cn2ccnc2)OCc2ccsc2Cl)c(Cl)c1 (stereo unspecified) [Tioconazole] | 0.871

Q: Annotate the molecule Nc1ncnc2c1c(-c1ccc(Oc3ccccc3)cc1)cn2C1CCCC1 with its measured surviving fraction.
Ans: 0.964

Q: Write down surviving fraction measured for item CCCSc1ccc2[nH]c(NC(=O)OC)nc2c1 [Albendazole]
Ans: 0.783

Q: Complete the entry with surviving fraction for CCCCCCC[N+](CC)(CC)CCCCc1ccc(Cl)cc1 [Clofilium tosylate]
Ans: 1.12

Q: Respond only with surviving fraction recorded for Oc1c(Cl)cc(Cl)c(Cl)c1Cc1c(O)c(Cl)cc(Cl)c1Cl [Hexachlorophene]
Ans: 0.963
